# Test Details: label from the status in PepcDB records
Outcome Measure: protein production

MIEFDNLTYLHGKPQGTGLLKANPEDFVVVEDLGFEPDGEGEHILVRILKNGCNTRFVADALAKFLKIHAREVSFAGQKDKHAVTEQWLCARVPGKEMPDLSAFQLEGCQVLEYARHKRKLRLGALKGNAFTLVLREVSNRDDVEQRLIDICVKGVPNYFGAQRFGIGGSNLQGAQRWAQTNTPVRDRNKRSFWLSAARSALFNQIVAERLKKADVNQVVDGDALQLAGRGSWFVATTEELAELQRRVNDKELMITAALPGSGEWGTQREALAFEQAAVAAETELQALLVREKVEAARRAMLLYPQQLSWNWWDDVTVEIRFWLPAGSFATSVVRELINTTGDYAHIAE; not failed
MSLSEIKHWVFDMDGTLTIAVHDFAAIREALSIPAEDDILTHLAALPADESAAKHAWLLEHERDLAQGSRPAPGAVELVRELAGRGYRLGILTRNARELAHVTLEAIGLADCFAEADVLGRDEAPPKPHPGGLLKLAEAWDVSPSRMVMVGDYRFDLDCGRAAGTRTVLVNLPDNPWPELTDWHARDCAQLRDLLSAEGHHHHHH; not failed

###

# Test Details: label from the status in PepcDB records
Outcome Measure: protein production

MENLKKYLEVAKIAALAGGQVLKENFGKVKKENIEEKGEKDFVSYVDKTSEERIKEVILKFFPDHEVVGEEMGAEGSGSEYRWFIDPLDGTKNYINGFPIFAVSVGLVKGEEPIVGAVYLPYFDKLYWGAKGLGAYVNGKRIKVKDNESLKHAGVVYGFPSRSRRDISIYLNIFKDVFYEVGSMRRPGAAAVDLCMVAEGIFDGMMEFEMKPWDITAGLVILKEAGGVYTLVGEPFGVSDIIAGNKALHDFMLQVAKKYMEVAV; not failed
MGHHHHHHSHMAGTVVLDDVELREAQRDYLDFLDDEEDQGIYQSKVRELISDNQYRLIVNVNDLRRKNEKRANRLLNNAFEELVAFQRALKDFVASIDATYAKQYEEFYVGLEGSFGSKHVSPRTLTSCFLSCVVCVEGIVTKCSLVRPKVVRSVHYCPATKKTIERRYSDLTTLVAFPSSSVYPTKDEENNPLETEYGLSVYKDHQTITIQEMPEKAPAGQLPRSVDVILDDDLVDKAKPGDRVQVVGTYRCLPGKKGGYTSGTFRTVLIACNVKQMS; not failed
MAPEPLSAAGQNLIDTATSVINGIPVSDFYSVASAAISDDGRVFSGVNVYHFNGGPCAELVVLGVAAAAGATKLTHIVAIANEGRGILSPCGRCRQVLADLHPGIKAIVIGKEGPKMVAVEELLPSIYAWDKDYDRI; not failed
